B1: Gamma-crystallin C, residues 4 to 79; numbered along this chain, P07315 (parent)
chain: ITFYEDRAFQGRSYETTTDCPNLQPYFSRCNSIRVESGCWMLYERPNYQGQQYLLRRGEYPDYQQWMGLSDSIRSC

variants of: B1; assay: abundance fitness (aPCA) (normalised: wild type 0, dead -1); higher = more abundant; growth selection in yeast, the domain comes from the species named; conditions: Homo sapiens
Readout name: abundance fitness
Numbers only.

Y53Q ... -0.094

Could you report abundance fitness for every entry in the following list?
1. T18L
2. T17W
3. Y14I
4. D6E
5. S75M
6. D71E

Response given:
-0.023
-0.092
0.003
-0.038
-0.675
0.027

Could you report abundance fitness for every entry in the following list?
1. L55Y
2. R74K

Response given:
1: -0.04; 2: -0.013
